Provide the reported pEC50 of each item.
- MEASURED_ON: human ferroportin (Homo sapiens)
- Construct: luciferase reporter (read with the Nano-Glo Luciferase Assay System); expressed in transfected cells; host or cells: CHO cells, stably transfected, expression induced with doxycycline
- EXPERIMENTAL_DETAILS: Biological in-vitro ferroportin internalization assay (luciferase reporter)
- Type: cell-based
- CONDITION_NOTES: average pEC50; stably-transfected CHO cell line expressing human ferroportin tagged to a luciferase reporter; 6 h incubation with test compound
Give bare numbers.

Some solved entries appear below for comparison.
• CN(c1nc(-c2ccccn2)nc2c1CCC2)C1CCN(c2ccccc2)C1=O (stereo not shown) = 7.3
• CN(CC(=O)Nc1ccc(F)nc1)c1nc(-c2ccccn2)nc2c1CCC2 = 7.1
• CN(Cc1nncn1-c1cccc(F)c1)c1nc(-c2cc(OCCO)ccn2)nc2c1CCC2 = 6.4

Query molecule follows.
Query: pEC50; subject: CN(CC(=O)NC(C)(C)C)c1nc(-c2cc(OCC3(O)CCCC3)ccn2)nc2c1CCC2
8.3

* * *

- MEASURED_ON: human ferroportin (Homo sapiens, UniProt Q9NP59)
- Construct: luciferase reporter (read with the Nano-Glo Luciferase Assay System); expressed in transfected cells; host or cells: CHO cells, stably transfected, expression induced with doxycycline
- Sequence (Q9NP59 whole entry): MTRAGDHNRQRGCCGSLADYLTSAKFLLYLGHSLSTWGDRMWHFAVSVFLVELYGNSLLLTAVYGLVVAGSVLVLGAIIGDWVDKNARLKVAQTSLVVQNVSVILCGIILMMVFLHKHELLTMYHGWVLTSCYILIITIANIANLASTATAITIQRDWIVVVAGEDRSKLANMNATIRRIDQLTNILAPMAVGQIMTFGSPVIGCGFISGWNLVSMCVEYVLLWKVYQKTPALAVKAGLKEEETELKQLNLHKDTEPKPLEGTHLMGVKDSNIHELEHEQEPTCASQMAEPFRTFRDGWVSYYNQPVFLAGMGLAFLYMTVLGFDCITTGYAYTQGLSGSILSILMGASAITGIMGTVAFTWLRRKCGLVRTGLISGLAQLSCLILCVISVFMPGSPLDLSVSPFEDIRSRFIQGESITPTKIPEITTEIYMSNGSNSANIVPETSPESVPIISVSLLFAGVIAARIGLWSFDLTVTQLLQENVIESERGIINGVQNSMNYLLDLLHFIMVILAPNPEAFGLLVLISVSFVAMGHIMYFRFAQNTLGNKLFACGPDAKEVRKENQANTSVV
- EXPERIMENTAL_DETAILS: Biological in-vitro ferroportin internalization assay (luciferase reporter)
- Assay type: cell-based
- CONDITION_NOTES: average pEC50; stably-transfected CHO cell line expressing human ferroportin tagged to a luciferase reporter; 6 h incubation with test compound
Provide the reported pEC50 of each item.
Answers are plain numbers.

- CC(=O)NCCOc1ccnc(-c2nc3c(c(N(C)CC(=O)Nc4cccc(F)c4)n2)CCC3)c1: 8.3
- COc1ccnc(-c2nc3c(c(N(C)CC(=O)N4CC[C@H](O)C4)n2)CCC3)c1: 7.4
- CN(C)CCOc1ccnc(-c2nc3c(c(N(C)CC(=O)NC(C)(C)C)n2)C(C)(C)CC3)c1: 8
- Cc1cnc(-c2nc3c(c(N(C)CC(=O)NC(C)(C)C)n2)CCC3)cc1OCCO: 7
- CN(CC(=O)NC(C)(C)C)c1nc(-c2cocn2)nc2c1CCC2: 5.4

Please state, for each entry, its recorded pEC50.
1. COc1ccnc(-c2nc3c(c(N(C)CC(=O)Nc4ccc(OC)nc4)n2)CCC3)c1
2. COc1ccnc(-c2nc3c(c(N(C)[C@@H]4CCN(c5ccccc5)C4=O)n2)CCC3)c1
3. Cc1ccc(NC(=O)CN(C)c2nc(-c3cc(OCCO)ccn3)nc3c2CCC3)nn1

1. 8.1
2. 7.3
3. 7.5

Please state, for each entry, its recorded pEC50.
1. COc1ncc(NC(=O)CN(C)c2nc(-c3cc(OC(C)(C)CO)ccn3)nc3c2CCC3)cn1
2. CCNC(=O)CN(C)c1nc(-c2cc(OCC3(O)CC3)ccn2)nc2c1CCC2
3. CN(CC(=O)NC1(C(F)(F)F)CC1)c1nc(-c2ccccn2)nc2c1CCC2
4. CN(CC(=O)N1CCC(F)(F)CC1)c1nc(-c2cc(OCC(C)(C)O)ccn2)nc2c1CCC2
5. COc1ccc(N(C)C(=O)CN(C)c2nc(-c3cc(OCCO)ccn3)nc3c2CCC3)cc1
6. CN(CC(=O)Nc1cccc(F)c1)c1nc(-c2cc(OCCN)ccn2)nc2c1CCC2
7. CN(CC(=O)Nc1cnn(C2CC2)c1)c1nc(-c2cc(OCCO)ccn2)nc2c1CCC2
8. CC(C)[C@H](C(=O)NC(C)(C)C)N(C)c1nc(-c2ccccn2)nc2c1CCC2

1. 7.7
2. 7.5
3. 7
4. 7.7
5. 7.2
6. 7.9
7. 7.8
8. 7.6

* * *

- MEASURED_ON: human ferroportin (Homo sapiens, UniProt Q9NP59)
- Construct: luciferase reporter (read with the Nano-Glo Luciferase Assay System); expressed in transfected cells; host or cells: CHO cells, stably transfected, expression induced with doxycycline
- EXPERIMENTAL_DETAILS: Biological in-vitro ferroportin internalization assay (luciferase reporter)
- Format: cell-based
- CONDITION_NOTES: average pEC50; stably-transfected CHO cell line expressing human ferroportin tagged to a luciferase reporter; 6 h incubation with test compound
VALUE_KIND: pEC50
Give bare numbers.

- CC(C)NC(=O)[C@@H](C)N(C)c1nc(-c2cc(OCCN(C)C)ccn2)nc2c1CCC2 [Compound 433]: 8.0

Please state, for each entry, its recorded pEC50.
1. CN(CC(=O)NC(C)(C)C)c1nc(-c2cc(OC(C)(C)CO)ccn2)nc2c1CCC2 [Compound 425]
2. CN(CC(=O)NC12CC(C1)C2)c1nc(-c2cc(OCCO)ccn2)nc2c1CCC2 [Compound 349]
3. COc1ccc(NC(=O)CN(C)c2nc(-c3cc(OCCO)ccn3)nc3c2CCC3)nc1 [Compound 209]
4. CN(CC(=O)NC(C)(C)C)c1nc(-c2cn(CCO)cn2)nc2c1CCC2 [Compound 195]
5. COc1ncc(NC(=O)CN(C)c2nc(-c3cn(C)cn3)nc3c2CCC3)cn1 [Compound 186]
6. CN(CC(=O)NC(C)(C)C)c1nc(-c2cc(OCC3(O)CCC3)ccn2)nc2c1CCC2 [Compound 388]
7. C[C@H](C(=O)Nc1cnn(C)c1)N(C)c1nc(-c2cc(OCCO)ccn2)nc2c1CCC2 [Compound 310]

[8.3, 7.8, 8, 6.9, 7, 8.2, 7.4]

* * *

Provide the reported pEC50 of each item.
- MEASURED_ON: human ferroportin (Homo sapiens)
- Construct: luciferase reporter (read with the Nano-Glo Luciferase Assay System); expressed in transfected cells; host or cells: CHO cells, stably transfected, expression induced with doxycycline
- EXPERIMENTAL_DETAILS: Biological in-vitro ferroportin internalization assay (luciferase reporter)
- Type: cell-based
- CONDITION_NOTES: average pEC50; stably-transfected CHO cell line expressing human ferroportin tagged to a luciferase reporter; 6 h incubation with test compound
Numbers only.

Some solved entries appear below for comparison.
• COc1ccc(N2CCN(c3nc(-c4ccccn4)nc4c3CCC4)CCC2=O)cc1 = 6.3
• Cc1ccc(NC(=O)CN(C)c2nc(-c3ccc(F)cn3)nc3c2CCC3)cn1 = 6.1
• CN(CC(=O)Nc1ccc2cccnc2c1)c1nc(-c2ccccn2)nc2c1CCC2 = 6.9

Query compound follows.
# query: pEC50 | item CN(CC(=O)NC(C)(C)C)c1nc(-c2cc(OCC(C)(C)O)ccn2)nc2c1C(=O)CC2 | system: human ferroportin (Homo sapiens)
6.6

* * *

- MEASURED_ON: human ferroportin (Homo sapiens, UniProt Q9NP59)
- Construct: luciferase reporter (read with the Nano-Glo Luciferase Assay System); expressed in transfected cells; host or cells: CHO cells, stably transfected, expression induced with doxycycline
- EXPERIMENTAL_DETAILS: Biological in-vitro ferroportin internalization assay (luciferase reporter)
- Type: cell-based
- CONDITION_NOTES: average pEC50; stably-transfected CHO cell line expressing human ferroportin tagged to a luciferase reporter; 6 h incubation with test compound
VALUE_KIND: pEC50
Answers are plain numbers.

Some solved entries appear below for comparison.
* CN(c1nc(-c2cc(OCCO)ccn2)nc2c1CCC2)[C@H]1CCCN(c2cccc(F)c2)C1=O | 7.1
* CN(C)CCCc1ccnc(-c2nc3c(c(N(C)CC(=O)NC(C)(C)C)n2)CCC3)c1 | 7.6

Please state, for each entry, its recorded pEC50.
1. CCN(Cc1ncccn1)c1nc(-c2ccccn2)nc2c1CCC2
2. CN(CC(=O)Nc1ccc(F)nc1)c1nc(-c2cc3cnn(C4CCCCO4)c3cn2)nc2c1CCC2 (centres unmarked)
3. CC(C)NC(=O)CN(C)c1nc(-c2cc(OCCN3CCN(C)CC3)ccn2)nc2c1CCC2
4. COCCN(C)c1nc(-c2ccccn2)nc2c1CCC2
5. CC(C)(C)NC(=O)CNc1cc(-c2ccccn2)nc2c1CCC2
6. CN(CC(=O)N1CCCCCC1)c1nc(-c2cc(OCCO)ccn2)nc2c1CCC2

[6.8, 6.5, 7.5, 6.6, 6.2, 7.7]

* * *

Provide the reported pEC50 of each item.
- MEASURED_ON: human ferroportin (Homo sapiens, UniProt Q9NP59)
- Construct: luciferase reporter (read with the Nano-Glo Luciferase Assay System); expressed in transfected cells; host or cells: CHO cells, stably transfected, expression induced with doxycycline
- EXPERIMENTAL_DETAILS: Biological in-vitro ferroportin internalization assay (luciferase reporter)
- Type: cell-based
- CONDITION_NOTES: average pEC50; stably-transfected CHO cell line expressing human ferroportin tagged to a luciferase reporter; 6 h incubation with test compound
- Description: The protocol for this assay is generally as described in WO2018/128828, incorporated herein by reference in its entirety. Functional internalization of ferroportin protein was measured using a stably-transfected CHO cell line expressing the human ferroportin tagged to a luciferase reporter. […] Cells were incubated with the test compounds for 6 h, and subsequently luciferase activity was measured using the Nano-Glo Luciferase Assay System and Glomax (Promega, Madison, Wis.). […]
Answers are plain numbers.

Some solved entries appear below for comparison.
• CN(CC(=O)Nc1ccc(F)nc1)c1nc(-c2cc3cn[nH]c3cn2)nc2c1CCC2 [Compound 266] = 7.3
• CN(CC(=O)NC(C)(C)C)c1nc(-c2cc(C3CC3)ccn2)nc2c1CCC2 [Compound 57] = 7.5
• CCN(CC(=O)NC(C)(C)C)c1nc(-c2cc(OCCO)ccn2)nc2c1CCC2 [Compound 360] = 7.8

Please state, for each entry, its recorded pEC50.
1. CN(CC(=O)NC(C)(C)C)c1nc(-c2ccccn2)nc2c1CCC2 [Compound 89]
2. c1ccc(-c2nc3c(c(N4CC5CC(C4)c4ccccc45)n2)CCC3)nc1 [Compound 1]

[7.3, 6.9]

From: patent US11746100B2
